Experiment: qHTS assay to identify small molecule agonists of the estrogen receptor alpha (ER-alpha) signaling pathway in the presence of an antagonist - cell viability counter screen (AID 1259386);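 note: cells exposed to compounds for 22 h at 37 °C before the viability read; nearly all actives have a fitted effect of over 30% in size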
Conditions: VM7Luc4E2 viability, CellTiter-Fluor fluorescence, 22 h; series mostly up to 92.4 µM
Inconclusive results are not listed. Calls of active or inactive are those of the source. Calls come from the whole dose curve; as a rule, active = well fitted cell-killing curve with a large enough effect in the repeat runs; inconclusive = weak or mixed curves, or effect the other way; inactive = no such curve, though single readings can be large or run the other way.
One label from this list, please: yes (1) = active, no (0) = inactive

A selection of reference data follows.
Nc1cc(C(F)(F)F)ccc1S: no (0)
NC(=O)CC[C@@H]1NC(=O)[C@H](Cc2ccccc2)NC(=O)[C@H](Cc2ccc(O)cc2)NC(=O)CCSSC[C@@H](C(=O)N2CCC[C@H]2C(=O)N[C@@H](CCCN=C(N)N)C(=O)NCC(N)=O)NC(=O)[C@H](CC(N)=O)NC1=O: no (0)

[in] Query: recorded result category for N=C1C=CC(=C(c2ccc(N)cc2)c2ccc(N)cc2)C=C1 in this test
[out] yes (1)

[in] Please let me know the test result on file for CC(C)(C)CC(C)(C)c1ccc(OCCOCC[N+](C)(C)Cc2ccccc2)cc1 .
[out] yes (1)

[in] # outcome recorded in this test, key = CCCCCCCCS(=O)C(C)Cc1ccc2c(c1)OCO2 (stereo not given)
[out] no (0)

###

Experiment: qHTS assay to identify aromatase inhibitors - cell viability counter screen (AID 743084);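 note: cells stimulated with testosterone during compound exposure; nearly all actives have a fitted effect of over 55% in size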
Conditions: MCF-7 aro ERE viability, CellTiter-Fluor, 24 h; series mostly up to 70.3 µM
Records with an inconclusive call do not appear. Active and inactive are the calls of the source. Calls follow the shape of the dose curve; as a rule, active = well fitted cell-killing curve with a large enough effect in the repeat runs; inconclusive = weak or mixed curves, or effect the other way; inactive = no such curve, though single readings can be large or run the other way.
One label from this list, please: active, inactive

Before answering, review these 8 worked examples.
O=C(NO)C1(NS(=O)(=O)c2ccc(Oc3ccc(F)cc3)cc2)CCOCC1: inactive
CC1=C(/C=C/C(C)=C/C=C/C(C)=C/C=O)C(C)(C)CCC1: active
Cc1cccc(CN2CCN(C(c3ccccc3)c3ccc(Cl)cc3)CC2)c1 (configuration not stated): inactive
CCCC(=O)OC[C@@H](OC(=O)CCC)[C@@H](OC(=O)CCC)[C@H](Cn1c2nc(=O)[nH]c(=O)c-2nc2cc(C)c(C)cc21)OC(=O)CCC: inactive
Cc1cccc(S(=O)(=O)O)c1C: inactive
O=C(O)c1cc(O)c2c(c1)C(=O)c1cccc(O)c1C2=O: inactive
Cc1ccc(-n2nc(C(C)(C)C)cc2NC(=O)Nc2ccc(OCCN3CCOCC3)c3ccccc23)cc1: inactive
C[n+]1cc2c3c(ccc2c2ccc4cc5c(cc4c21)OCO5)OCO3: active

[in] // param item: CN(C)c1ccc(C2(c3ccc(N(C)C)cc3)OC(=O)c3cc(N(C)C)ccc32)cc1 ; yields the recorded call
[out] inactive

[in] Recorded test outcome, item OCCCCCCCCCCCCBr
[out] inactive

[in] Hi, sorry to bother you, what did the test record for CCC(Cl)C(Cl)C(Cl)CC(Cl)C(Cl)C(C)Cl (configuration not stated) ?
[out] inactive

[in] Recorded call for CCCCCCC[N+](CC)(CC)CCCCc1ccc(Cl)cc1 ?
[out] inactive

[in] For C[C@@H](NCCCc1cccc(C(F)(F)F)c1)c1cccc2ccccc12 , which call appears in the assay record?
[out] active

[in] Assay outcome for CC(C)OC(=O)c1cc2c(OCC(O)CNC(C)(C)C)cccc2[nH]1 (configuration not stated) : what was it?
[out] inactive

[in] State the result this test recorded for Oc1ccc2cc(SSc3ccc4cc(O)ccc4c3)ccc2c1 .
[out] active

[in] Which outcome was entered for the compound CCCCCCCCCCCCc1ccc(O)cc1 in this test?
[out] active

[in] Entry C=C(C)C(=O)OCC(O)COc1ccc(C(C)(C)c2ccc(OCC(O)COC(=O)C(=C)C)cc2)cc1 (configuration not stated) : call = ?
[out] active

[in] Entry CC[C@H](c1ccc(O)cc1)[C@@H](CC)c1ccc(O)cc1 : call = ?
[out] inactive
